# Tested on: antibodies in sera from SARS patients (sera 1a, 1b, 2, 6, 37, 62, London, SARS-yellow, SARS-green)
# Type: binding, human
measure: Binding of serum London to looped/cyclic peptides of protein X1 of SARS-CoV Urbani
// return a plain number; no unit text

Guide cases for Binding of serum London to looped/cyclic peptides of protein X1 of SARS-CoV Urbani, answers given:
1) PYNSVTDTIVVTEGD 0.2
2) TEGDGISTPKLKEDY 0.2
3) GYFTEVYYQLESTQI 0.2
4) DTGIENATFFIFNKL 0.2

Sample "VYYQLESTQITTDTG" — what was its Binding of serum London to looped/cyclic peptides of protein X1 of SARS-CoV Urbani?
0.2

====

# Tested on: antibodies in sera from SARS patients (sera 1a, 1b, 2, 6, 37, 62, London, SARS-yellow, SARS-green)
# Format: binding, human
measure: Binding of serum 1b to linear peptides of protein X4 of SARS-CoV Urbani
// return a plain number; no unit text

1) VFTSCELYHYQECVR 0.6
2) ARSVSPKLFIRQEEV 0.6
3) RQEEVQQELYSPLFL 0.6
4) TSCELYHYQECVRGT 0.6
5) ADGTRHTYQLRARSV 0.6

Sample "FTSCELYHYQECVRG" — what was its Binding of serum 1b to linear peptides of protein X4 of SARS-CoV Urbani?
0.7

====

# System: antibodies in sera from SARS patients (sera 1a, 1b, 2, 6, 37, 62, London, SARS-yellow, SARS-green)
# Format: binding, human
measure: Binding of serum 1a to looped/cyclic peptides of protein X5 of SARS-CoV Urbani
// return a plain number; no unit text

Guide cases for Binding of serum 1a to looped/cyclic peptides of protein X5 of SARS-CoV Urbani, answers given:
1) TYSTAWLCALGKVLP 0.5
2) KILVRYNTRGNTYST 0.5
3) GALIARCWYLHEGHQ 0.4
4) TRGNTYSTAWLCALG 0.4
5) FHRWHTMVQTCTPNV 0.7

Sample "VQTCTPNVTINCQDP" — what was its Binding of serum 1a to looped/cyclic peptides of protein X5 of SARS-CoV Urbani?
0.6

Sample "TAWLCALGKVLPFHR" — what was its Binding of serum 1a to looped/cyclic peptides of protein X5 of SARS-CoV Urbani?
0.4

Sample "TCTPNVTINCQDPAG" — what was its Binding of serum 1a to looped/cyclic peptides of protein X5 of SARS-CoV Urbani?
0.2

Sample "YSTAWLCALGKVLPF" — what was its Binding of serum 1a to looped/cyclic peptides of protein X5 of SARS-CoV Urbani?
0.5

====

# Tested on: antibodies in sera from SARS patients (sera 1a, 1b, 2, 6, 37, 62, London, SARS-yellow, SARS-green)
# Format: binding, human
We begin with a simple list: items and their reported Binding of serum 6 to looped/cyclic peptides of protein X4 of SARS-CoV Urbani.

Guide cases for Binding of serum 6 to looped/cyclic peptides of protein X4 of SARS-CoV Urbani, answers given:
1) PCPSGTYEGNSPFHP 0.5
2) ADGTRHTYQLRARSV 0.7
3) FLTLIVFTSCELYHY 0.5
4) AFACADGTRHTYQLR 0.9

Sample "LIVAALVFLILCFTI" — what was its Binding of serum 6 to looped/cyclic peptides of protein X4 of SARS-CoV Urbani?
0.3

Sample "HFAFACADGTRHTYQ" — what was its Binding of serum 6 to looped/cyclic peptides of protein X4 of SARS-CoV Urbani?
0.6

Sample "GTRHTYQLRARSVSP" — what was its Binding of serum 6 to looped/cyclic peptides of protein X4 of SARS-CoV Urbani?
0.6

FYI, the data here is from patent US20070128217A1.
